Where these numbers come from: patent US20250152729A1

Target: T1, human SEMA4A expressed on cells (UniProt ID Q9H3S1, isoform 1) (human, UniProt Q9H3S1 33-761)
T1 sequence: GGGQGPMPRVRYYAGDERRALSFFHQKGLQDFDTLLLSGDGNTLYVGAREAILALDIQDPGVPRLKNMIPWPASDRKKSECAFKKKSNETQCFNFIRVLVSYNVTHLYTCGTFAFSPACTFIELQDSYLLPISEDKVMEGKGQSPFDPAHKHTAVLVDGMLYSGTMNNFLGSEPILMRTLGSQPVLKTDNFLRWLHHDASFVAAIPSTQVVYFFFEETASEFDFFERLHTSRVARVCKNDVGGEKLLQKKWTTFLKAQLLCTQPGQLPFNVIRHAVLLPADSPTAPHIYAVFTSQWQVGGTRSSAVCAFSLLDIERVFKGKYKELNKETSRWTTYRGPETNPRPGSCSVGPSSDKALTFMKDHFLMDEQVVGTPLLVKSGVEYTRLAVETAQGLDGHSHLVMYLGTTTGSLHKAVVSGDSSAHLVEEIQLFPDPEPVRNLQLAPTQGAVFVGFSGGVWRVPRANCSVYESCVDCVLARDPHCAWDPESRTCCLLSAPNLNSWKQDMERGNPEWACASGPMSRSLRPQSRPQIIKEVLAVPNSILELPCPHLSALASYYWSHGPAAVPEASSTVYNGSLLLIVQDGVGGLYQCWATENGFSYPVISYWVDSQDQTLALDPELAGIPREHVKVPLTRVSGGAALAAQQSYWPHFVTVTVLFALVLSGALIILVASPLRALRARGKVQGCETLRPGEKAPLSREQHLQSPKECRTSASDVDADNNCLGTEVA
Test: cell-based or functional assay
experimental-endpoint: EC50 (nM), Fab-pHast internalisation into NCI-H929
Express your answer in nM, writing the number without its unit.

Query block: I would be grateful if you could share the reported EC50 (nM), Fab-pHast internalisation into NCI-H929 for 5Hg2-5Lg1 human Alya IgG1 conjugated to McMMAF (antibody, V domains shown, McMMAF on the engineered cysteines 239iCys and S442C (EU numbering) of the heavy constant region, Antibody-drug conjugate; human IgG1 Alya constant) VH: QVQLVQSGAEVKKPGASVKVSCKASGYTFTDYWMHWVRQAPGQRLEWMGAIDTSDSYTSYNQKFKGRVTITRDTSASTAYMELSSLRSEDTAVYYCARDYGNFYYYAMDYWGQGTLVTVSS VL: QAVVTQEPSLTVSPGGTVTLTCRSSTGAVTTSNYANWFQQKPGQAPRTLIYGTNNRAPWTPARFSGSLLGGKAALTLSGAQPEDEAEYYCALWYSNHWVFGGGTKLTVL .
Result block: 0.62
